The reported numbers originate from patent US10479784B2.

# system-tested: full-length ATR (Homo sapiens (Human), UniProt Q13535)
# Sequence (Q13535 whole entry): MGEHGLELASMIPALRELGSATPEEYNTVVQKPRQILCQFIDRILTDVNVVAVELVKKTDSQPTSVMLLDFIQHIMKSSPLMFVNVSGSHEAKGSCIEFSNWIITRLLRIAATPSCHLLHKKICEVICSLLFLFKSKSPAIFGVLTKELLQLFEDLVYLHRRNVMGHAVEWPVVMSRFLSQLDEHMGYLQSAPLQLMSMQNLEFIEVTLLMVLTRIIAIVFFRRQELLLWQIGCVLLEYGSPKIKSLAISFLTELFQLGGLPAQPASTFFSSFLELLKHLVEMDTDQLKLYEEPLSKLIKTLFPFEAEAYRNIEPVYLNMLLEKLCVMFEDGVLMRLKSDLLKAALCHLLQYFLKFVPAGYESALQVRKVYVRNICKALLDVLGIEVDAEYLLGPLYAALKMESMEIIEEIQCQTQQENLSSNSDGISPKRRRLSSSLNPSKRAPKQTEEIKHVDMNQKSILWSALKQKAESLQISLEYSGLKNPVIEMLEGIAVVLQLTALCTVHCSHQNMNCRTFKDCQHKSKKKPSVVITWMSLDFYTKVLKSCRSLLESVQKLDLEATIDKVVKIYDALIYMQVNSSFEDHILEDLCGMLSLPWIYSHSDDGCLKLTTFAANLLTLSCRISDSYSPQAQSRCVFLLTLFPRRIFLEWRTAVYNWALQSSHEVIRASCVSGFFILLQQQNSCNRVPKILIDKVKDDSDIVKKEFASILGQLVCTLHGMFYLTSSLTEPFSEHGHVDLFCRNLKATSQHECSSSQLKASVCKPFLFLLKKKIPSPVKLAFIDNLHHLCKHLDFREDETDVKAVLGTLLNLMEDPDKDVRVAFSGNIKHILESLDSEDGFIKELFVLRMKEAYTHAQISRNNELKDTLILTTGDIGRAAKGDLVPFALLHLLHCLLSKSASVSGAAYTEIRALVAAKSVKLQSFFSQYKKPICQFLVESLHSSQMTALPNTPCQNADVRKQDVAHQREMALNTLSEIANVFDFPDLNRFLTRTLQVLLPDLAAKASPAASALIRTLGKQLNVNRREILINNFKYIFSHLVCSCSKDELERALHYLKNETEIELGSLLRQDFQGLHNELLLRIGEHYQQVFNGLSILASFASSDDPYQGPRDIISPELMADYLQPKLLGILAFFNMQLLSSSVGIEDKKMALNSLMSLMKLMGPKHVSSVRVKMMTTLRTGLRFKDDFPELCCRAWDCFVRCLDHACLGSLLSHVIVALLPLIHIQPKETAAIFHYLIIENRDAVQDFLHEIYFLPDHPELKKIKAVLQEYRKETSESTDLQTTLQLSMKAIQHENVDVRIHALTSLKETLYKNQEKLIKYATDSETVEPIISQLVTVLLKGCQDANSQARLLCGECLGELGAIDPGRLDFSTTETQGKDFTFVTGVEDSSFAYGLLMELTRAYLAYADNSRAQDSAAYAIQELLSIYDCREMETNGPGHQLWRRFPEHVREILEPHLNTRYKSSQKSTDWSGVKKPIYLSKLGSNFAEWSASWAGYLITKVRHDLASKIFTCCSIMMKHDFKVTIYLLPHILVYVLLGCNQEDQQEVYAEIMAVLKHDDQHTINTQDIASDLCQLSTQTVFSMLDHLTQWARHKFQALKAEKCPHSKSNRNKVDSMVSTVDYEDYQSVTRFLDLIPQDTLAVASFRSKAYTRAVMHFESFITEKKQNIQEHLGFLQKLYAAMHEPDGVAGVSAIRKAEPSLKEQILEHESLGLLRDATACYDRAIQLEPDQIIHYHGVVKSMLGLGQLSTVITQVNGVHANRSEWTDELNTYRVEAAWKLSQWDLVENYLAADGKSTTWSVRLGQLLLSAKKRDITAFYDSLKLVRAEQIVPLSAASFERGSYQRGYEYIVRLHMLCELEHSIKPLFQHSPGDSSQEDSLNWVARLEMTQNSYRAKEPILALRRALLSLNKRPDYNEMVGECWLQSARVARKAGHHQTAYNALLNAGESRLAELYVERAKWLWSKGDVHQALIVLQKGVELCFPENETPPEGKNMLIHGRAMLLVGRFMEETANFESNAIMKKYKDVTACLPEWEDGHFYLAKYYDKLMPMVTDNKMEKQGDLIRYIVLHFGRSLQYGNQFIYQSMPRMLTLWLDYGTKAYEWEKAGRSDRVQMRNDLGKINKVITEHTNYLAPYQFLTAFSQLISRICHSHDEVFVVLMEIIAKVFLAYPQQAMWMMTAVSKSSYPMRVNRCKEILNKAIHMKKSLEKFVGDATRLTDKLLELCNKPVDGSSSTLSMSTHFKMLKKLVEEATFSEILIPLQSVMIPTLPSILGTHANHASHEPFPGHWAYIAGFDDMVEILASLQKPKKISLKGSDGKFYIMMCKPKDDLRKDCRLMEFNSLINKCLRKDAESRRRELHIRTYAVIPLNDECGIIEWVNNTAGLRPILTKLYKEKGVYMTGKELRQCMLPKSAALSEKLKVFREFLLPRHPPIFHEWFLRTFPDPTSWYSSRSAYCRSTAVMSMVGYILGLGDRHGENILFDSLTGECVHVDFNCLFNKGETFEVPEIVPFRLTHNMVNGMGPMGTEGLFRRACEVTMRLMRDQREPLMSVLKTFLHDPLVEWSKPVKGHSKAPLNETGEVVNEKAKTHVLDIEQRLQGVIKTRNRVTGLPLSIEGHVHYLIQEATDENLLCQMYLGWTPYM
# assay-overview: ATR Inhibition Assay (radioactive-phosphate incorporation)
# Assay type: biochemical
# protocol-conditions: read-out: ATR Ki
observable: Ki

Nc1ncc(-c2ccccc2)nc1C(=O)Nc1ccccc1 [Compound I-15] = 100 to 5000 nM
CC(C)(C)OC(=O)N1CCCN(C(=O)c2ccc(-c3cnc(N)c(-c4nnc(-c5ccccc5)o4)n3)c(C#N)c2)CC1 [IA-19] = ≤ 10 nM
CC(C)S(=O)(=O)c1ccc(-c2cnc(N)c(-c3nnc(C(=O)N4CCC(N)C4)o3)n2)cc1 (stereo not shown) [IA-133] = 100 to 5000 nM

Next compound, Ki to be filled in.
Given item CC(C)S(=O)(=O)c1ccc(-c2cnc(N)c(-c3nnc(C4=CCN(C(=O)OC(C)(C)C)CC4)o3)n2)cc1 [IA-95] , the value recorded as its Ki is 100 to 5000 nM

---

# system-tested: full-length ATR (Homo sapiens (Human), UniProt Q13535)
# assay-overview: ATR Inhibition Assay (radioactive-phosphate incorporation)
# Format: biochemical
# protocol-conditions: read-out: ATR Ki
pKi: −log10 of the molar value.
observable: pKi

Sample answers from the record:
CN(C)C(=O)c1ccc(-c2cnc(N)c(-c3nnc(-c4cscn4)o3)n2)cc1 [IA-180] = 7.00 to 8.00
Nc1ncc(-c2ccc(S(=O)(=O)N3CCNCC3)cc2)nc1-c1nnc(-c2ccccc2)o1 [IA-24] = 7.00 to 8.00
CNCc1cccc(NC(=O)c2nc(-c3ccc(S(C)(=O)=O)cc3)cnc2N)c1 [VII-13] = 7.00 to 8.00
Nc1ncc(-c2ccccc2)nc1-c1nnc(-c2ccccc2)o1 [IA-49] = 7.00 to 8.00
N#Cc1cccc(NC(=O)c2nc(-c3cccnc3)cnc2N)c1 [Compound I-87] = 5.30 to 7.00

Reported full-length ATR (Homo sapiens (Human), UniProt Q13535) pKi for item CC(C)S(=O)(=O)c1ccc(-c2cnc(N)c(-c3nnc(NC(=O)[C@H]4N[C@H]5CC[C@@H]4C5)o3)n2)cc1 [IA-160] was 5.30 to 7.00

// returns pKi for Cc1ccc2nc(-c3nc(-c4ccc(C(=O)N5CCCN(C(=O)OC(C)(C)C)CC5)cc4)cnc3N)[nH]c2c1 [Compound I-147] with full-length ATR (Homo sapiens (Human), UniProt Q13535); value = ≥ 8.00

// assay full-length ATR (Homo sapiens (Human), UniProt Q13535), entry CS(=O)(=O)c1ccc(-c2cnc(N)c(-c3nc4ccccc4s3)n2)cc1 [Compound I-146] , pKi value = 7.00 to 8.00

---

# system-tested: full-length ATR (Homo sapiens (Human))
# assay-overview: ATR Inhibition Assay (radioactive-phosphate incorporation)
# Assay type: biochemical
# protocol-conditions: read-out: ATR Ki
pKi: −log10 of the molar value.
observable: pKi

CC(C)S(=O)(=O)c1ccc(-c2cnc(N)c(-c3nnc(C(=O)N4CCCNCC4)o3)n2)cc1 [IA-79] = 7.00 to 8.00
CNCc1ccc(-c2nnc(-c3nc(-c4ccc(S(=O)(=O)C5COC5)cc4)cnc3N)o2)cc1 [IA-308] = ≥ 8.00
CC(C)S(=O)(=O)c1ccc(-c2cnc(N)c(-c3nnc(-c4cccc([C@@H](C)N)c4)o3)n2)cc1 [IA-80] = ≥ 8.00
CC(C)S(=O)(=O)c1ccc(-c2cnc(N)c(-c3nnc(-c4ccc(C(=N)N)cc4)o3)n2)cc1 [IA-70] = ≥ 8.00
CCCNCc1ccc(-c2cc(-c3nc(-c4ccc(S(=O)(=O)C(C)C)cc4)cnc3N)on2)cc1 [IIA-6] = ≥ 8.00

Sample Nc1ncc(-c2cccnc2)nc1-c1nc2ccccc2[nH]1 [Compound I-121] ; pKi observed: 7.00 to 8.00

Just so you know, measured pKi for COc1ncccc1NC(=O)c1nc(-c2ccc(S(C)(=O)=O)cc2)cnc1N [VII-1] came out at 7.00 to 8.00

Per the record, NC(=O)c1ccc(NC(=O)c2nc(-c3cccnc3)cnc2N)cc1 [Compound I-92] has pKi of 5.30 to 7.00
